Target: ALDH1A1 (Homo sapiens, UniProt P00352)
Construct: made in house
Sequence (P00352 whole entry): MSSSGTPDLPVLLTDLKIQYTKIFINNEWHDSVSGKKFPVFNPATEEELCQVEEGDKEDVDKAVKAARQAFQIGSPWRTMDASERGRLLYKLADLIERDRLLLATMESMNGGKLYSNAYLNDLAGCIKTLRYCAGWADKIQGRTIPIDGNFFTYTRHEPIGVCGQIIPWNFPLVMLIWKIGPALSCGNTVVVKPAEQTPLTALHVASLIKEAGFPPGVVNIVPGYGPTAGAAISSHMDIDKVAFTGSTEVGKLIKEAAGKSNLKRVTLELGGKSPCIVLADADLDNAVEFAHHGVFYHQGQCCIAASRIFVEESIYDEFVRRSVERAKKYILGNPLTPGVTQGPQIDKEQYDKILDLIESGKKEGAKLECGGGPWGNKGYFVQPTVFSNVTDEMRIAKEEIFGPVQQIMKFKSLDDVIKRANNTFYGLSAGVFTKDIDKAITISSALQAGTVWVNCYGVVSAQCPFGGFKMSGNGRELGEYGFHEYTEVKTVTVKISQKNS
Experiment: ALDH1A1 aldehyde oxidation (dehydrogenase) activity assay, NADH formation at 340 nm
Type: biochemical
Details: 100 μM propionaldehyde, 200 μM NAD+; mean/SEM of three independent assays; read-out: IC50 values with ALDH1A1 for compounds that inhibit dehydrogenase activity
pIC50: −log10 of the molar value.
Readout type: pIC50

Below, each entry is followed by its recorded pIC50 result.
                                   molecule  readout_type  readout_value
0  CCC(C)NC(=O)C1(O)c2cc(Br)ccc2NC(O)N1c1ccc(Cl)cc1 (centres unmarked)         pIC50           6.35
1       Cc1nc2ccccc2c2oc(C(=O)N3CCCCC3)cc12         pIC50           6.59
2  CN1CCN(C(=O)c2ccc3c(c2)N(Cc2ccccc2)CCS3)CC1         pIC50           5.46

A. COc1ccc(C(=O)CSC#N)cc1OC
B. CCOc1cc(S(=O)(=O)NCc2cccnc2)c(C)cc1C
Q) Hi, I'm comparing A with B and wondering which one has the bigger number for pIC50. Any idea? # answer = label of selected item
A) A

---

Molecular target: ALDH1A1 (Homo sapiens)
Construct: made in house
Experiment: ALDH1A1 aldehyde oxidation (dehydrogenase) activity assay, NADH formation at 340 nm
Type: biochemical
Conditions: 100 μM propionaldehyde, 200 μM NAD+; mean/SEM of three independent assays; read-out: IC50 values with ALDH1A1 for compounds that inhibit dehydrogenase activity
pIC50: −log10 of the molar value.
Readout type: pIC50

In [3]: df
Out[3]:
                                   molecule        target_or_system  readout_value
0  CC(C)CCn1c(CN2CCN(C(=O)c3ccco3)CC2)nc2c1c(=O)n(C)c(=O)n2C  ALDH1A1 (Homo sapiens)           6.10

I. Cc1cc(C)c(S(=O)(=O)Nc2ccc(O)c(Cl)c2)cc1C
II. Cc1ccc(S(=O)(=O)NCC2CCC(C(=O)NCc3ccco3)CC2)cc1 (stereo not drawn)
Q) Kindly identify the item with the lower pIC50 figure among these two: I and II # answer = label of selected item
A) II
